B1: Pistol ribozyme (parent)
chain: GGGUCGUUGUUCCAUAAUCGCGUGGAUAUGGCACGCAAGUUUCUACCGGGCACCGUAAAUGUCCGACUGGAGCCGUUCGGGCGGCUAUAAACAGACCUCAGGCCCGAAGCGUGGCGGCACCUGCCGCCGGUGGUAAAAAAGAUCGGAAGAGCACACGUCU

# Variants of: B1
# protocol-summary: aptazyme ON/OFF ratio, guanine; higher = stronger switching; co-transcriptional cleavage with and without guanine
# aptazyme ON/OFF ratio per entry

# annotated cases, reported aptazyme ON/OFF ratio shown
| residue-change | measured-endpoint | assay-value |
| --- | --- | --- |
| U7A U8A G9U U11G C13G | aptazyme ON/OFF ratio | 1.08 |
| U8G U10A C12U C13A | aptazyme ON/OFF ratio | 1.32 |
| U7C U8C G9U U10A C12A C13U | aptazyme ON/OFF ratio | 1.2 |
| U7C U8G G9C U10A U11G C13G | aptazyme ON/OFF ratio | 1.03 |
| U7C U10A U11G C12A C13G | aptazyme ON/OFF ratio | 0.975 |

What the record says about U7A U8A U10C U11C C12G : aptazyme ON/OFF ratio is 1.2

What the record says about U7G U8C U11A C12G C13U : aptazyme ON/OFF ratio is 1.12

What the record says about U7A U8C U10G U11G C12G C13U : aptazyme ON/OFF ratio is 1.4

What the record says about U7C U8G G9U U10A U11G C12U C13A : aptazyme ON/OFF ratio is 1.11

What the record says about U7G U8A G9C U10G U11C C12G C13G : aptazyme ON/OFF ratio is 1.03

What the record says about U7G G9A U10G U11G C12U C13G : aptazyme ON/OFF ratio is 1.12
